substrate: N[C@@H](Cc1ccccc1)C(=O)O; test: purified protein; assay type: biochemical, Escherichia coli; settings: co-substrate α-ketoglutarate (fixed, 0.1563–1.25 mM range), 16 µM PLP, 5 mM NAD+, 100 mM potassium phosphate pH 8, 37 °C
measure name: Km
For clarity, give the value followed by its unit.

For E. coli aspartate aminotransferase (AAT) (Escherichia coli K-12; K37F/N64T/T43I) (protein, full-length, N-terminal His-tag, expressed in E. coli BL21-Gold (DE3), Ni-NTA purified; 90 kDa homodimer, PLP-dependent) MFENITAAPADPILGLADLFRADERPGKINLGIGVYFDETGKIPVLTSVKKAEQYLLENETTKTYLGIDGIPEFGRCTQELLFGKGSALINDKRARTAQTPGGTGALRVAADFLAKNTSVKRVWVSNPSWPNHKSVFNSAGLEVREYAYYDAENHTLDFDALINSLNEAQAGDVVLFHGCCHNPTGIDPTLEQWQTLAQLSVEKGWLPLFDFAYQGFARGLEEDAEGLRAFAAMHKELIVASSYSKNFGLYNERVGACTLVAADSETVDRAFSQMKAAIRANYSNPPAHGASVVATILSNDALRAIWEQELTDMRQRIQRMRQLFVNTLQEKGANRDFSFIIKQNGMFSFSGLTKEQVLRLREEFGVYAVASGRVNVAGMTPDNMAPLCEAIVAVL the protein record lists Km as 900 ± 60 µM
